experimental.details: Plasma pharmacokinetics and tissue level after local administration of ceramic-based controlled release composition into dog prostate (Example 1)
Format: in vivo
cond: male, Labrador, plasma; dog H4, 120 mg local prostate implant

compound: CC(C)(O)C(=O)Nc1ccc([N+](=O)[O-])c(C(F)(F)F)c1 [2-hydroxy-flutamide]
measurement.units: h
Tmax: 24

----------
experimental.details: Plasma pharmacokinetics and tissue level after local administration of ceramic-based controlled release composition into dog prostate (Example 1)
Type: in vivo
cond: male, Labrador, plasma; dog H4, 120 mg local prostate implant
Experimental: One week later, the same animals were given 2-hydroxy-flutamide locally by a controlled release pharmaceutical composition in the prostate tissue. The 2-hydroxy- flutamide doses were 0 mg (H1), 30 mg (H3), 60 mg (H2) and 120 mg (H4), and each dog was given one implant only. Where H1 was a control given the composition without 2-hydroxy-flutamide. […] Quantification of 2-hydroxy-flutamide in plasma and tissue samples was done by HPLC-MS. […] The limit of quantification was 0.50 ng/ml in dog plasma. […]

molecule: CC(C)(O)C(=O)Nc1ccc([N+](=O)[O-])c(C(F)(F)F)c1 [2-hydroxy-flutamide]
AUC: 9410 ng·h/mL

----------
experimental.details: Plasma pharmacokinetics after local prostate implant in male beagle dogs (Example 3)
Assay type: in vivo, dog
cond: male, beagle, dog, plasma, 500 mg, beagle dogs, local prostate implant 500 mg, Mean of four animals; read-out: AUC
result.type: AUC (µg·h/mL)

compound: CC(C)(O)C(=O)Nc1ccc([N+](=O)[O-])c(C(F)(F)F)c1 [2-hydroxy-flutamide]
reported: 12.1

----------
experimental.details: Plasma pharmacokinetics after local prostate implant in male beagle dogs (Example 3)
Format: in vivo, dog
cond: male, beagle, dog, plasma, iv, 250 mg, beagle dogs, local prostate implant 250 mg, Mean of four animals; approximated with average i.v. clearance of Example 1; read-out: F (bioavailability)

molecule: CC(C)(O)C(=O)Nc1ccc([N+](=O)[O-])c(C(F)(F)F)c1 [2-hydroxy-flutamide]
bioavailability: 71%

----------
experimental.details: Plasma pharmacokinetics and tissue level after local administration of ceramic-based controlled release composition into dog prostate (Example 1)
Assay type: in vivo
cond: male, Labrador, dog, plasma, 60 mg, dog H2, 60 mg local prostate implant; read-out: t1/2 (converted)
Description: One week later, the same animals were given 2-hydroxy-flutamide locally by a controlled release pharmaceutical composition in the prostate tissue. The 2-hydroxy- flutamide doses were 0 mg (H1), 30 mg (H3), 60 mg (H2) and 120 mg (H4), and each dog was given one implant only. Where H1 was a control given the composition without 2-hydroxy-flutamide. […] Quantification of 2-hydroxy-flutamide in plasma and tissue samples was done by HPLC-MS. […] The limit of quantification was 0.50 ng/ml in dog plasma. […]

compound: CC(C)(O)C(=O)Nc1ccc([N+](=O)[O-])c(C(F)(F)F)c1 [2-hydroxy-flutamide]
half-life / h: 45

----------
experimental.details: Plasma pharmacokinetics after local prostate implant in male beagle dogs (Example 3)
Assay type: in vivo, dog
cond: male, beagle, dog, plasma, 500 mg, beagle dogs, local prostate implant 500 mg, Mean of four animals; read-out: Cmax

compound: CC(C)(O)C(=O)Nc1ccc([N+](=O)[O-])c(C(F)(F)F)c1 [2-hydroxy-flutamide]
Cmax [ng/mL]: 145

----------
experimental.details: Plasma pharmacokinetics and tissue level after local administration of ceramic-based controlled release composition into dog prostate (Example 1)
Assay type: in vivo
cond: male, Labrador, dog, plasma, 120 mg, given in the ceramic composition, three dosed dogs (30, 60, 120 mg); read-out: elimination half-life
result.type: half-life

compound: CC(C)(O)C(=O)Nc1ccc([N+](=O)[O-])c(C(F)(F)F)c1 [2-hydroxy-flutamide]
result.type: half-life
reported: 35 to 45 h

----------
experimental.details: Plasma pharmacokinetics and tissue level after local administration of ceramic-based controlled release composition into dog prostate (Example 1)
Type: in vivo
cond: male, Labrador, plasma; dog H4, 120 mg local prostate implant
result.type: Cmax (ng/mL)

molecule: CC(C)(O)C(=O)Nc1ccc([N+](=O)[O-])c(C(F)(F)F)c1 [2-hydroxy-flutamide]
reported: 142

----------
experimental.details: Plasma pharmacokinetics after local prostate implant in male beagle dogs (Example 3)
Assay type: in vivo, dog
cond: male, beagle, dog, plasma, iv, 500 mg, beagle dogs, local prostate implant 500 mg, Mean of four animals; approximated with average i.v. clearance of Example 1; read-out: F (bioavailability)

compound: CC(C)(O)C(=O)Nc1ccc([N+](=O)[O-])c(C(F)(F)F)c1 [2-hydroxy-flutamide]
bioavailability [%]: 102

----------
experimental.details: in vivo
cond: male, Labrador, dog, iv, 25 mg, Cmax

compound: CC(C)(O)C(=O)Nc1ccc([N+](=O)[O-])c(C(F)(F)F)c1 [2-hydroxy-flutamide]
Cmax / ng/mL: 835

----------
experimental.details: Plasma pharmacokinetics after local prostate implant in male beagle dogs (Example 3)
Assay type: in vivo, dog
cond: male, beagle, dog, plasma, 250 mg, beagle dogs, local prostate implant 250 mg, Mean of four animals; read-out: tmax

compound: CC(C)(O)C(=O)Nc1ccc([N+](=O)[O-])c(C(F)(F)F)c1 [2-hydroxy-flutamide]
measurement.units: h
Tmax: 17

----------
experimental.details: Plasma pharmacokinetics and tissue level after controlled release implant into bulbourethral gland of male sheep (Example 2)
Type: in vivo
cond: male, sheep, plasma, other: local implant into the bulbourethral gland via rectum, 250 mg, male sheep, 250 mg controlled release implant; read-out: elimination half-life (converted)

compound: CC(C)(O)C(=O)Nc1ccc([N+](=O)[O-])c(C(F)(F)F)c1 [2-hydroxy-flutamide]
half-life: ~146 h

----------
experimental.details: Plasma pharmacokinetics and tissue level after controlled release implant into bulbourethral gland of male sheep (Example 2)
Type: in vivo
cond: male, sheep, plasma, 250 mg, male sheep, 250 mg implant into bulbourethral gland, Mean of seven sheep; read-out: t½ (converted)

compound: CC(C)(O)C(=O)Nc1ccc([N+](=O)[O-])c(C(F)(F)F)c1 [2-hydroxy-flutamide]
half-life / h: 146
